Data origin, for the record: PubChem BioAssay

Experiment: antimalarial activity against Dd2 strain (AID 2302);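 further: 0% = DMSO untreated growth and 100% = chloroquine plus artemisinin killed control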
Conditions: P. falciparum Dd2 in RBCs, LDH growth readout, 72 h; at 2 µM; hits give high values
ASSAY ENDPOINT: growth inhibition (%)
Express it in %; write the number only.

In the examples that follow, each entry is paired with its recorded growth inhibition.
COMPOUND	ASSAY ENDPOINT	VALUE REPORTED
Cc1cc(C)cc(Oc2c(C(F)(F)F)oc3c(CN4CC(C)OC(C)C4)c(O)ccc3c2=O)c1 (stereo not given)	growth inhibition	54
CCCCCCCCNCCCSCCCNCCCCCCCC	growth inhibition	47
Oc1ccc(CCCNc2nc(NCc3cccc4ccccc34)nc(N3CCCNCC3)n2)cc1	growth inhibition	62
Cc1cc(F)ccc1[C@H]1C[C@H](N2CCOCC2)CCN1C(=O)N(C)[C@@H](C)c1cc(C(F)(F)F)cc(C(F)(F)F)c1	growth inhibition	99
O=C(NC1CC1)c1cnc(N2CCC(c3ccccc3)CC2)c(Cl)c1	growth inhibition	95
CCOc1ccc(C(C)NC(=O)C2COc3ccccc3O2)cc1OCC (stereo not given)	growth inhibition	100

compound COc1ccc2nc3cc(Cl)ccc3c(NCCCCCCNc3c4ccc(Cl)cc4nc4ccc(OC)cc34)c2c1 , growth inhibition observed: 79
